- Test Target: Transient receptor potential cation channel subfamily V member 1 (Homo sapiens, UniProt Q8NER1)
- Sequence (Q8NER1 whole entry): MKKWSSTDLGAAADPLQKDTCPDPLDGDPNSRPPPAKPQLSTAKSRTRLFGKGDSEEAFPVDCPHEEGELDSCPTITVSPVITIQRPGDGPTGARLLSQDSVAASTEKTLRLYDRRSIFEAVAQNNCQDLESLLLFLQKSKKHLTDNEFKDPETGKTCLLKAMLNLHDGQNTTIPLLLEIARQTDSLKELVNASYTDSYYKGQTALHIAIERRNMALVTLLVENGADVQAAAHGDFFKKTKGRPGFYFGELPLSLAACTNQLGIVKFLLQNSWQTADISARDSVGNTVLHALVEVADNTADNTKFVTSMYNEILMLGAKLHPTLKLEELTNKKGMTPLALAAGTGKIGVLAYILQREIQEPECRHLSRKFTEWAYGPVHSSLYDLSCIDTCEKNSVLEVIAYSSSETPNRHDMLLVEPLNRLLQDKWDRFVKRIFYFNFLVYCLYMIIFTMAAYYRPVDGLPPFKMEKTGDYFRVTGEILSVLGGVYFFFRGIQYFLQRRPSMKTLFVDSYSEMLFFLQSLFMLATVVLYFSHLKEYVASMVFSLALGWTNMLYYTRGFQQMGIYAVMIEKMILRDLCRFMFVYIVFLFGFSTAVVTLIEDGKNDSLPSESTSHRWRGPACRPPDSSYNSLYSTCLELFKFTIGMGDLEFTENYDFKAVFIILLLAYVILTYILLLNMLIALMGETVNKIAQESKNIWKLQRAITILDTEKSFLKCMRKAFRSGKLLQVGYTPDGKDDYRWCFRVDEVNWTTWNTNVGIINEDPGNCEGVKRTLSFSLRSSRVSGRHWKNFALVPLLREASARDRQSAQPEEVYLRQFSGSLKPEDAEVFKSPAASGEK
- Assay Summary: Antagonist activity at human recombinant TRPV1 expressed in HEK293 cells assessed as inhibition of capsaicin-induced calcium by FLIPR method
pIC50: −log10 of the molar value.
Quantity: pIC50

Solved entries:
COc1ccc(C(C)CNC(=O)Nc2cccc3cnccc23)cc1 (stereo not drawn); 6.17
COc1ccc2c(c1)CCC(NC(=O)Nc1cccc3ccc(O)cc13)C2Cc1ccccc1 (stereo not drawn); 7.22
COc1ccc2c(c1)CCC(NC(=O)Nc1cccc3cnccc13)C2Cc1cccc(Cl)c1 (stereo not drawn); 7.89

A. O=C(NCC(Cc1ccccc1)c1ccc(F)cc1)Nc1cccc2cnccc12 (stereo not drawn)
B. O=C(Nc1cccc2cnccc12)NC1CCc2cc(Cl)ccc2C1Cc1ccccc1 (stereo not drawn)
// query Which record shows the lower pIC50: the first, A , or the second, B ? Please respond with the label that marks your chosen entry.
// result B

a. O=C(Nc1cccc2cnccc12)NC1CCc2cc(Br)ccc2C1Cc1ccccc1 (stereo not drawn)
b. O=C(Nc1cccc2cnccc12)NC1CCc2ccc(Cl)cc2C1Cc1ccccc1 (stereo not drawn)
// query Compare reported pIC50 values for a and b . Which is lower? Record your answer as the label of the chosen record.
// result b

A. O=C(Nc1cccc2ccc(O)cc12)NC1CCc2cc(F)ccc2C1Cc1ccc(C(F)(F)F)cc1 (stereo not drawn)
B. COc1ccc2c(c1)CCC(NC(=O)Nc1cccc3cnccc13)C2Cc1ccccc1 (stereo not drawn)
C. O=C(Nc1cccc2cnccc12)NC1CCc2cc(O)ccc2C1Cc1ccccc1 (stereo not drawn)
D. COc1ccc2c(c1)CCC(NC(=O)Nc1cccc3cnccc13)C2Cc1ccc(C(F)(F)F)cc1 (stereo not drawn)
// query Hey, quick one: sort these by pIC50, largest value first please. Return the labels ranked in the requested order, please.
// result D, B, C, A
(D: 8.70, B: 7.60, C: 6.70, A: 6.44)

a. COc1ccc2c(c1)CCC(NC(=O)Nc1cccc3cnccc13)C2Cc1ccc(Br)cc1 (stereo not drawn)
b. O=C(Nc1cccc2cnccc12)NC1CCc2cc(F)ccc2C1Cc1ccc(C(F)(F)F)cc1 (stereo not drawn)
c. COc1cc2c(cc1OC)C(Cc1ccccc1)C(NC(=O)Nc1cccc3cnccc13)CC2 (stereo not drawn)
d. O=C(Nc1cccc2cnccc12)NC1CCc2cc(F)ccc2C1Cc1ccoc1 (stereo not drawn)
// query Sort ascending by pIC50. Your task in answering is to list the labels in the requested order.
// result c, d, a, b
(c: 6.64, d: 7.08, a: 7.66, b: 8.00)

P. O=C(NCC(Cc1cccc(C(F)(F)F)c1)c1ccc(F)cc1)Nc1cccc2cnccc12 (stereo not drawn)
Q. COc1ccc(CC2c3ccc(OC)cc3CCC2NC(=O)Nc2cccc3cnccc23)cc1 (stereo not drawn)
R. O=C(Nc1cccc2cnccc12)NC1CCc2cc(F)ccc2C1CC1CC1 (stereo not drawn)
S. C=CCC1c2ccc(F)cc2CCC1NC(=O)Nc1cccc2cnccc12 (stereo not drawn)
// query Given 4 compounds, produce a descending ranking by pIC50. Reply with the item labels sorted in the order that was asked for.
// result P, Q, S, R
(P: 7.72, Q: 7.44, S: 7.00, R: 6.46)

I. O=C(Nc1cccc2cnccc12)NC1CCc2ccccc2C1Cc1ccccc1 (stereo not drawn)
II. COc1ccc(C(CNC(=O)Nc2cccc3cnccc23)Cc2cccnc2)cc1 (stereo not drawn)
III. O=C(Nc1cccc2cnccc12)NC1CCc2cc(F)ccc2C1Cc1ccccc1 (stereo not drawn)
// query Rank by pIC50 (largest to smallest). Provide the labels, sequenced as the question asks.
// result III, I, II

a. COc1ccc(C(CNC(=O)Nc2cccc3cnccc23)Cc2ccccc2)cc1 (stereo not drawn)
b. O=C(Nc1cccc2cnccc12)NC1CCc2cc(F)ccc2C1Cc1cccs1 (stereo not drawn)
// query Problem: Given the entries a and b , determine which has the lower reported pIC50. Answer with the label corresponding to your selection.
// result b
